target: FRK (human) (UniProt P42685); test: radiometric filter-binding kinase assay, Kinase HotSpot; settings: compound 0.5 µM; ATP 10 µM
Sequence (P42685 whole entry, looked up): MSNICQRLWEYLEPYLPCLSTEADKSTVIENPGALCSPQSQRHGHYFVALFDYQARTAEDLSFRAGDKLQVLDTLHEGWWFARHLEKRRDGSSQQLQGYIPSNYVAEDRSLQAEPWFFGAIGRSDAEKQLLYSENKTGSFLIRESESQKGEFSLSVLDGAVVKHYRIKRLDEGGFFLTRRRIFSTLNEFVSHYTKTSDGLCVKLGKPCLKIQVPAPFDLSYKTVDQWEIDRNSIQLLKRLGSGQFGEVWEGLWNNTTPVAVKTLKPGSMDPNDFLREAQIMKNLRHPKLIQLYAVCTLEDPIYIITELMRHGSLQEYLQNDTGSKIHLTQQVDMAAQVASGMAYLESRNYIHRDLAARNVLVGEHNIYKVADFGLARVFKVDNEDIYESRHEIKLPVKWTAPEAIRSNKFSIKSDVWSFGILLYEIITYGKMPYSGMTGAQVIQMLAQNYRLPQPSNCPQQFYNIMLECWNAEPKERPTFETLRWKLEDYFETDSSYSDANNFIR
MEASUREMENT_LABEL: residual activity (%)
Numbers only, in %.

Past entries and their recorded results:
{"COMPOUND": "O=C(NC(NC(=S)Nc1ccc(F)c([N+](=O)[O-])c1)C(Cl)(Cl)Cl)C(c1ccccc1)c1ccccc1 (stereo not drawn)", "MEASUREMENT_LABEL": "residual activity", "MEASUREMENT": 103}
{"COMPOUND": "C#Cc1cccc(Nc2ncnc3cc(OCCOC)c(OCCOC)cc23)c1", "MEASUREMENT_LABEL": "residual activity", "MEASUREMENT": 102}
{"COMPOUND": "COc1cc2ncnc(Nc3ccc(F)c(Cl)c3)c2cc1OCCCN1CCOCC1", "MEASUREMENT_LABEL": "residual activity", "MEASUREMENT": 97.9}

Here are 3 compounds. What values of residual activity were reported for them?
1. COc1ccc(-c2cnc3c(-c4ccsc4)cnn3c2)cc1
2. Nc1nc(Nc2ccc(S(N)(=O)=O)cc2)nn1C(=S)Nc1c(F)cccc1F
3. O=C1Cc2c([nH]c3ccc([N+](=O)[O-])cc23)-c2ccccc2N1

Key:
1: 85.6; 2: 70.6; 3: 97.2

Respectfully, I request residual activity for each entry included below.
1. O=C(Nc1ccc(Cl)cc1)c1ccccc1NCc1ccncc1
2. O=c1cc(-c2cccc3c2Sc2ccccc2S3)oc(N2CCOCC2)c1

Key:
1. 62.8
2. 99.5

----------
target: PRKD1 (human) (UniProt Q15139); assay: radiometric filter-binding kinase assay, Kinase HotSpot; details: compound 0.5 µM; ATP 10 µM
Sequence (Q15139 whole entry, looked up): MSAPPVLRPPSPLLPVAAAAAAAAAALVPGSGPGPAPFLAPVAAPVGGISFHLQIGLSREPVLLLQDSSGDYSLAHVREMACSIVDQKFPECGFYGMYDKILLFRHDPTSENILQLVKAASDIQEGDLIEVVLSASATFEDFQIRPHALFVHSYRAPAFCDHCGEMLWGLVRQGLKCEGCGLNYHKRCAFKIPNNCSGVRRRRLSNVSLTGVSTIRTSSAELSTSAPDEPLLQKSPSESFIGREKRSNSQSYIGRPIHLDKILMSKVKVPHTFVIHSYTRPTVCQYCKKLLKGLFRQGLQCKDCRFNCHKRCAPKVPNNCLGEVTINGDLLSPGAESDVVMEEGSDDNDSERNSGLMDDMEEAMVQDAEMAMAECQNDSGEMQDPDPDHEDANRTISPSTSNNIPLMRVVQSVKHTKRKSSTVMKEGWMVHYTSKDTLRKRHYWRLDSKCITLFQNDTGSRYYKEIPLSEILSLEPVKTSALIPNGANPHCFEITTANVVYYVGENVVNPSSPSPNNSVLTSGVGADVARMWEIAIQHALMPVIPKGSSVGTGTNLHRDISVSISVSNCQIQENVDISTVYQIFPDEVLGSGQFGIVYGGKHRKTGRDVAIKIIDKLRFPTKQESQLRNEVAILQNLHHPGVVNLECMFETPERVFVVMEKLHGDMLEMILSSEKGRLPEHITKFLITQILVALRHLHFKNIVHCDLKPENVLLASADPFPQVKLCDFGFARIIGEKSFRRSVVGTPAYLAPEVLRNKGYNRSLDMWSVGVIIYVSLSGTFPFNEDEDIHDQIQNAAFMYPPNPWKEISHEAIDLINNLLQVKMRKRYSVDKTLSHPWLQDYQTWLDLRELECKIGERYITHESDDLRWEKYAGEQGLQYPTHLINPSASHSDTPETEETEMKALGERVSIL
Answer each item with its documented residual activity.
Answers are plain numbers, in %.

{"COMPOUND": "O=C(Nc1ccc(Cl)cc1)c1ccccc1NCc1ccncc1", "MEASUREMENT": 93.2}
{"COMPOUND": "Cc1cc2ncc(-c3ccccc3)nc2cc1C", "MEASUREMENT": 100}
{"COMPOUND": "O=C1Cc2c([nH]c3ccc([N+](=O)[O-])cc23)-c2ccccc2N1", "MEASUREMENT": 95.6}

Respectfully, I request residual activity for each entry included below.
1. COc1cc2nccc(Oc3ccc(NC(=S)NC(=O)c4ccccc4C)cc3)c2cc1OC
2. Oc1ccc(-c2nc(-c3ccc(F)cc3)c(-c3ccncc3)[nH]2)cc1
3. CCCNC(=O)Nc1ccc(Oc2ncnc3cc(OC)c(OC)cc23)cc1Cl
4. O=c1cc(-c2cccc3c2Sc2ccccc2S3)oc(N2CCOCC2)c1
5. COc1ccc(-c2cnc3c(-c4ccsc4)cnn3c2)cc1
6. CSc1nc(-c2ccc(F)cc2)c(-c2ccnc(NC(C)c3ccccc3)c2)[nH]1 (centres undefined)

Key:
1. 137
2. 90.7
3. 92.9
4. 90.3
5. 95.1
6. 90.1

----------
So I've got a bunch of molecules here, and I need their residual activity values.
target: PTK2 (human) (UniProt Q05397); test: radiometric filter-binding kinase assay, Kinase HotSpot; details: compound 0.5 µM; ATP 10 µM
Sequence (Q05397 whole entry, looked up): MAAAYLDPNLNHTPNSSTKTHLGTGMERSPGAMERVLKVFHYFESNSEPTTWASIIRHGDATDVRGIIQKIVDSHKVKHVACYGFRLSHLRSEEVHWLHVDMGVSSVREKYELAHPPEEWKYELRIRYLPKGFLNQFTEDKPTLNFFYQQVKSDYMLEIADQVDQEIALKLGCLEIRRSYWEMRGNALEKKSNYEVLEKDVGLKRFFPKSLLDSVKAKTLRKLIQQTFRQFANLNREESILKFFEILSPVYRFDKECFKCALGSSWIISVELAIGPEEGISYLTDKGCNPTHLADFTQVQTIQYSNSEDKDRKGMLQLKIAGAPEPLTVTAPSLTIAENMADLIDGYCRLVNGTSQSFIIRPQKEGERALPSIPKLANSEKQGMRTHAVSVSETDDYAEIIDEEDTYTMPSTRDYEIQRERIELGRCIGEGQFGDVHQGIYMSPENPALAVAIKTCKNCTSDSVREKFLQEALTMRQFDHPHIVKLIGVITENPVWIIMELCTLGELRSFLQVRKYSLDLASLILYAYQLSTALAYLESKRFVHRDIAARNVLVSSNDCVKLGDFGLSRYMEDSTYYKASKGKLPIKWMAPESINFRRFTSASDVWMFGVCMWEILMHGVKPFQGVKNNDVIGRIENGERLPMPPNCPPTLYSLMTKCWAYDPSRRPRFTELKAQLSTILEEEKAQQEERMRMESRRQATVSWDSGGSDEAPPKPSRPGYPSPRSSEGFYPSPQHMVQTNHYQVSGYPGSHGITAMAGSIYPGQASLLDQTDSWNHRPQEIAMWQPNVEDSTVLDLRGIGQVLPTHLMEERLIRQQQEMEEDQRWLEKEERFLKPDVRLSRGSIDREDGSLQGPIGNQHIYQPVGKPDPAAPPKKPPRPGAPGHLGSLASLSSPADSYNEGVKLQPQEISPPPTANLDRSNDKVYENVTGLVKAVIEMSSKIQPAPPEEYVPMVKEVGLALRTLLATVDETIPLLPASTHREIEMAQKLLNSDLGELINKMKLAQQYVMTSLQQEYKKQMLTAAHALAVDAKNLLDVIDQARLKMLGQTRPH

{"MOLECULE": "CS(=O)c1ccc(-c2nc(-c3ccc(F)cc3)c(-c3ccncc3)[nH]2)cc1 (centres undefined)", "residual activity": "95.5%"}
{"MOLECULE": "O=C1Nc2cc(Br)ccc2/C1=C1/Nc2ccccc2/C1=N\\O", "residual activity": "89%"}
{"MOLECULE": "CC(C)n1cnc2c(Nc3cccc(Cl)c3)nc(NCCO)nc21", "residual activity": "68.9%"}

// next entry
Exercise: Recorded residual activity of CCN1/C(=C/C(C)=O)Sc2ccc(OC)cc21 , please.
Key: 108%
